These measurements were taken from patent US20050245399A1.

- Test system: soybean (Glycine max Merr.): GLXMA
- measurement.notes: Test Example 1 pre-emergence herbicidal activity, GLXMA
- Assay type: in vivo
- condition.summary: Rate 125 g a.i./ha, visually observed 20th to 23rd day after application
Each entry below carries its reported Pre-emergence Herbicidal Activity GLXMA (growth controlling degree).
measured.parameter: Pre-emergence Herbicidal Activity GLXMA (growth controlling degree) (%)

| compound | tested.on | measurement.units | value.observed |
| --- | --- | --- | --- |
| COc1c(Cl)cc(F)c(-c2nn(C)c(OC(F)F)c2Cl)c1N(C(=O)CCc1ccccc1)C(=O)CCc1ccccc1 | soybean (Glycine max Merr.): GLXMA | % | 20 |
| CCOC(=O)CN(C=O)c1c(OC)c(Cl)cc(F)c1-c1nn(C)c(OC(F)F)c1Cl | soybean (Glycine max Merr.): GLXMA | % | 0 |
| COc1c(Cl)cc(F)c(-c2nn(C)c(OC(F)F)c2Cl)c1N(C(=O)OCCCl)C(=O)OCCCl | soybean (Glycine max Merr.): GLXMA | % | 0 |
| COCCOC(=O)N(C(=O)OCCOC)c1c(OC)c(Cl)cc(F)c1-c1nn(C)c(OC(F)F)c1Cl | soybean (Glycine max Merr.): GLXMA | % | 10 |
| COc1c(Cl)cc(F)c(-c2nn(C)c(OC(F)F)c2Cl)c1NC(=O)c1ccc2ccccc2c1 | soybean (Glycine max Merr.): GLXMA | % | 20 |
| Cn1nc(-c2c(F)cc(Cl)c(OC(F)F)c2N(C=O)Cc2ccccc2)c(Cl)c1OC(F)F | soybean (Glycine max Merr.): GLXMA | % | 0 |
| COc1c(Cl)cc(F)c(-c2nn(C)c(OC(F)F)c2Cl)c1N(C(=O)OCCl)C(=O)OCCl | soybean (Glycine max Merr.): GLXMA | % | 0 |
| COC(=O)CN(C=O)c1c(OC)c(Cl)cc(F)c1-c1nn(C)c(OC(F)F)c1Cl | soybean (Glycine max Merr.): GLXMA | % | 10 |
| CCOC(=O)C(C)N(C=O)c1c(OC)c(Cl)cc(F)c1-c1nn(C)c(OC(F)F)c1Cl (centres unmarked) | soybean (Glycine max Merr.): GLXMA | % | 0 |
| COc1c(Cl)cc(F)c(-c2nn(C)c(OC(F)F)c2Cl)c1N(C=O)CCOc1ccccc1 | soybean (Glycine max Merr.): GLXMA | % | 0 |
| COc1ccc(OC(=O)N(C(=O)Oc2ccc(OC)cc2)c2c(OC)c(Cl)cc(F)c2-c2nn(C)c(OC(F)F)c2Cl)cc1 | soybean (Glycine max Merr.): GLXMA | % | 0 |

----------
- Tested on: barnyardgrass (Echinochloa crus-galli L.): ECHCG
- measurement.notes: Test Example 1 pre-emergence herbicidal activity, ECHCG
- Format: in vivo
- condition.summary: Rate 63 g a.i./ha, visually observed 20th to 23rd day after application
Values of Pre-emergence Herbicidal Activity ECHCG (growth controlling degree) greater than or equal to 60% map to label 1; values below map to label 0.

| compound.structure.string | class.name |
| --- | --- |
| COc1c(Cl)cc(F)c(-c2nn(C)c(OC(F)F)c2Cl)c1NC(=O)c1ccccc1F | label 1 |
| COc1ccc(OC(=O)Nc2c(OC)c(Cl)cc(F)c2-c2nn(C)c(OC(F)F)c2Cl)cc1 | label 1 |
| COc1c(Cl)cc(F)c(-c2nn(C)c(OC(F)F)c2Cl)c1N(C=O)C(C)C | label 1 |
| COc1c(Cl)cc(F)c(-c2nn(C)c(OC(F)F)c2Cl)c1NC(=O)COCc1ccccc1 | label 0 |
| COc1c(Cl)cc(F)c(-c2nn(C)c(OC(F)F)c2Cl)c1NC(=O)COc1ccc(C#N)cc1 | label 0 |
| COc1c(Cl)cc(F)c(-c2nn(C)c(OC(F)F)c2Cl)c1NC(=O)C=Cc1c(Cl)cccc1Cl | label 0 |
| COc1cccc(C(=O)Nc2c(OC)c(Cl)cc(F)c2-c2nn(C)c(OC(F)F)c2Cl)c1 | label 1 |
| CNc1c(OC)c(Cl)cc(F)c1-c1nn(C)c(OC(F)F)c1Cl | label 1 |
| COc1c(Cl)cc(F)c(-c2nn(C)c(OC(F)F)c2Cl)c1N(C=O)CC(=O)c1ccccc1 | label 1 |
| COc1c(Cl)cc(F)c(-c2nn(C)c(OC(F)F)c2Cl)c1NC(=O)C=Cc1ccc(F)cc1 | label 0 |
| Cn1nc(-c2c(F)cc(Cl)c(OC(F)F)c2NC(=O)C(F)(F)F)c(Cl)c1OC(F)F | label 1 |
| COc1c(Cl)cc(F)c(-c2nn(C)c(OC(F)F)c2Cl)c1NC(=O)CCc1ccc(F)cc1 | label 1 |
| COc1c(Cl)cc(F)c(-c2nn(C)c(OC(F)F)c2Cl)c1NC(=O)CCC1CCCCC1 | label 0 |
